- Tested on: IL-1beta expression
- procedure_text: RNA screening: IL-1beta expression in M1 (IFNg+LPS) polarized macrophages, quantitative RT-PCR
- Format: cell-based
- Design: key: −: significant decrease in mRNA vs control (mRNA levels above 50% of control); −−: significant decrease in mRNA vs control (mRNA levels below 50% of control); +: significant increase in mRNA vs control; =: no significant change vs control
- details: mRNA vs control; 1 μM compound 1 h before IFNgamma+LPS (M1) polarization, mRNA harvested 6 h post-stimulation
reported_property: RNA Screening Ifng + LPS Il1b

[[record]]
compound = "CC(C)NC(=O)NCC1CCCN(Cc2ccc3c(c2)OCCO3)C1 (stereo not drawn) [Compound 6]"
result = "+"

[[record]]
compound = "O=C(O)c1nc[nH]c1C(=O)N1CCN(c2ccccn2)CC1 [Compound 9]"
result = "+"

[[record]]
compound = "O=C(O)CCc1cc2n(n1)CCCN(Cc1c[nH]nc1C(=O)O)C2 [Compound 16]"
result = "+"

[[record]]
compound = "CC(O)c1cn(CC2CCN(C(=O)c3cscn3)CC2)nn1 (stereo not drawn) [Compound 7]"
result = "+"

[[record]]
compound = "COc1cccc2ccc(-c3ccc(N)nc3)nc12 [Compound 2]"
result = "+"


Query: Return reported RNA Screening Ifng + LPS Il1b; argument: OCCc1cn(C2CCN(Cc3cccnc3)CC2)nn1 [Compound 11]
Reply: +

Query: Return reported RNA Screening Ifng + LPS Il1b; argument: CCc1n[nH]c(SCC(=O)NCCC(=O)Nc2nccs2)n1 [Compound 3]
Reply: =

Query: Return reported RNA Screening Ifng + LPS Il1b; argument: CCC(=O)N1CCC(c2ccc3c(c2)OCO3)C(O)C1 (stereo not drawn) [Compound 15]
Reply: +

Query: Return reported RNA Screening Ifng + LPS Il1b; argument: CC(=O)N1CCN(Cc2cnn(-c3ccccc3Cl)c2)CC(O)C1 (stereo not drawn) [Compound 10]
Reply: =

====

- Tested on: TGF-beta expression
- procedure_text: RNA screening: TGF-beta expression in M2 (IL-4) polarized macrophages, quantitative RT-PCR
- Assay type: cell-based
- Parameters: key: −: significant decrease in mRNA vs control (mRNA levels above 50% of control); −−: significant decrease in mRNA vs control (mRNA levels below 50% of control); +: significant increase in mRNA vs control; =: no significant change vs control
- details: mRNA vs control; 1 μM compound 1 h before IL-4 (M2) polarization, mRNA harvested 6 h post-stimulation
reported_property: RNA Screening IL-4 Tgfb

[[record]]
smiles_string = "O=C(O)c1nc[nH]c1C(=O)N1CCN(c2ccccn2)CC1"
reported_property = "RNA Screening IL-4 Tgfb"
result = "+"

[[record]]
smiles_string = "CCc1n[nH]c(SCC(=O)NCCC(=O)Nc2nccs2)n1"
reported_property = "RNA Screening IL-4 Tgfb"
result = "="

